Attribute: IC50
Molecular target: T1, PVRIG (FACS-based competition assay of FIGS. 7 and 15) (Homo sapiens, UniProt Q6DKI7)
T1 construct: made because the format of the assay is only described in U.S. Ser. No. 15/048,967; also called human PVRIG
T1 sequence (receptor, looked up): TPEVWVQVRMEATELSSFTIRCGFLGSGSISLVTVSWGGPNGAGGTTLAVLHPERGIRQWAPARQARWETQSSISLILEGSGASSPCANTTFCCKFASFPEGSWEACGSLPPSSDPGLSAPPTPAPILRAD
Test: FACS-based competition assay of PVRIG blocking; format and competitor not given
property: IC50 (nM)

binder	measurement
CHA.7.518 (antibody, V domains shown) VH: EVQLQQSGPELVKPGASVKISCKASGYTFTDYNINWVKQSHGKSLEWIGYIYPYIGGSGYNQKFKSKATLSADNPSSTAYMELRSLTSEDSAVYYCAREDKTARNAMDYWGQGTPVTVSS VL: DIQMTQSPASLSVSVGETVTIICRVSENIYSNLAWYQQKQGKSPQLLVYEATNLAEGVPSRFSGSGSGTQYSLKINSLQSEDFGSYYCQHFWGTPYTFGGGTKLEIK	23.1
CHA.7.512 (antibody, V domains shown) VH: QIQLVQSGPELKKPRETVKISCKASGYTFTDYSMHWVKQAPGKGLKWMGWINTETGEPTYADDFKGRFAFSLEASASSAYLQINILKDEDTATYFCARSRGGYYEDYYALDYWGQGTSVTVSS VL: DIQMTQSPASLSASVGESVTITCRASGNIHYYLAWYQQKQGKSPQLLVYNAKNLADGVPSRFSGSGSGTQFSLKINSLQPEDFGSYYCQHFWISPPTFGGGTKLEIK	840
CHA.7.530 (antibody, V domains shown) VH: QVQLQQSGAELMRPGTSVKVSCKASGYAFTNHLIEWIKQRPGQGLEWIGVINPGSDSTDYNEKFKDKATLTADKSSSTAYMQLSSLTSDDSAVYFCARSLYYNSWFVYWGQGTLVTVSA VL: DIQMTQSPASLSASVGETVTITCRASENIYSYLAWYQQKRGKSPQLLVYNAKTLVEGVPSRFSGSGSGTQFSLKINSLQPEDFGSYYCQHHYGTPYTFGGGTKLEIK	34.6
